Experiment: Approximate solubility in different solvents at RT
Assay type: physicochemical
Details: Anisole, organic solvent or mixture, thermodynamic from solid, RT
measured property: solubility

Query: Entry under review: N#Cc1ccc(COc2cccc(C3CCN(Cc4nc5ccc(C(=O)O)cc5n4Cc4cncs4)CC3)n2)c(F)c1 [Freeform Type A] . Reported solubility?
Response: 1100 to 2100 µg/mL

* * *

Assay: Approximate solubility in different solvents at RT
Assay type: physicochemical
Settings: EtOAc, organic solvent or mixture, thermodynamic from solid, RT
measured property: solubility

Query: Entry under review: N#Cc1ccc(COc2cccc(C3CCN(Cc4nc5ccc(C(=O)O)cc5n4Cc4cncs4)CC3)n2)c(F)c1 [Freeform Type A] . Reported solubility?
Response: 2 to 6.7 mg/mL
